system: MDA-MB-468 breast; test: NCI tumour cell line growth inhibition, 48 h
Give measured GI50 for each item. Keep answers brief.

Would you please look over these solved cases?
CCOC(=O)n1cc(C2=C(c3ccc(OC)c(OC)c3)COC2=O)c2ccccc21 ... 0.0357 µM
CC(C)[C@@H]1NC(=O)[C@]2(C)CSC(=N2)c2ccnc(c2)CNC(=O)C[C@@H](/C=C/CCS)OC1=O ... 0.569 µM
O=C(Nc1cccc(C(F)(F)F)c1)Nc1cccc(C(F)(F)F)c1 ... 0.675 µM

Ask: Supply measured GI50 of CCCCCCOc1ccc(/C=N/Nc2cc(C)nc3ccc(Cl)cc23)cc1 in your reply.
Reply: 1.65 µM
